TEST_METHOD_NOTES: Acute toxicity (LD50) in mice
EXPERIMENTAL_CONTEXT: mouse, in vivo, intravenous injection, larger than any physically practicable maximum amount
ASSAY_METRIC: LD50

QUERY: Which value of LD50 has been reported for O=C(O)C[CH2][Ge](=[O])[O][Ge](=[O])[CH2]CC(=O)O [carboxyethyl germanium sesquioxide] in the records?
RESULT: > 1000 mg/kg

---

TEST_METHOD_NOTES: Acute toxicity (LD50) in mice
EXPERIMENTAL_CONTEXT: mouse, in vivo, oral
ASSAY_METRIC: LD50

QUERY: Which value of LD50 has been reported for O=C(O)C[CH2][Ge](=[O])[O][Ge](=[O])[CH2]CC(=O)O [carboxyethyl germanium sesquioxide] in the records?
RESULT: > 6300 mg/kg

---

TEST_METHOD_NOTES: Acute toxicity (LD50) in rats
EXPERIMENTAL_CONTEXT: rat, in vivo, intravenous injection, larger than any physically practicable maximum amount
ASSAY_METRIC: LD50

QUERY: Which value of LD50 has been reported for O=C(O)C[CH2][Ge](=[O])[O][Ge](=[O])[CH2]CC(=O)O [carboxyethyl germanium sesquioxide] in the records?
RESULT: > 1000 mg/kg

---

TEST_METHOD_NOTES: Acute toxicity (LD50) in rats
EXPERIMENTAL_CONTEXT: rat, in vivo, oral
ASSAY_METRIC: LD50

QUERY: Which value of LD50 has been reported for O=C(O)C[CH2][Ge](=[O])[O][Ge](=[O])[CH2]CC(=O)O [carboxyethyl germanium sesquioxide] in the records?
RESULT: > 10000 mg/kg
